Tested on: RPMI-8226 leukemia
protocol-details: NCI-60 one-dose screen, 48 h (100 = growth as untreated, 0 = no growth, -100 = all killed)
study-conditions: 10 µM unless noted
The panel holds about 83,000 compounds, 20% with a hit somewhere; the sample as a whole holds those more often.
quantity-name: growth (%)
// units = %; emit number, no label

Consider the worked cases shown below.
- compound: "O=C1c2cccnc2C(=O)c2c1c(C(=O)OCCCN1CCOCC1)c1ccccn21"
  quantity-name: "growth"
  number: -17.2
- compound: "CCN(CC)CCCC(Nc1c2ccc(Cl)cc2nc2ccc(OC)cc12)c1ccncc1 (configuration not stated)"
  quantity-name: "growth"
  number: 74.3
- compound: "C#Cc1c(I)n(C2OC(CO[Si](C)(C)C(C)(C)C)C3OC(C)(C)OC32)c(=O)[nH]c1=O (configuration not stated)"
  quantity-name: "growth"
  number: -66.8

Q: Find the recorded growth belonging to N#C/C(Sc1nc2sc3c(c2c(=O)n1Cc1ccccc1)CCCC3)=C1/SC=C(c2ccc(Cl)cc2)N1c1ccccc1 and report it.
Result: 68.3

Q: And for CN(C)CCOc1nc2c3cc([N+](=O)[O-])ccc3nn2c2ccccc12 ?
Result: 41.8

Q: And for CCOC(=O)C1=C(C)N(C)C(=O)N(C)C1c1ccccc1 (configuration not stated) ?
Result: 99.4

Q: And for COc1ccc(-c2nc(SCCC(C)C)nc(N/N=C(/C)c3ccc(N)cc3)c2C#N)cc1 ?
Result: 93.3

----------
Tested on: OVCAR-5 ovarian
protocol-details: NCI-60 one-dose screen, 48 h (100 = growth as untreated, 0 = no growth, -100 = all killed)
study-conditions: 10 µM unless noted
The panel holds about 83,000 compounds, 20% with a hit somewhere; the sample as a whole holds those more often.
quantity-name: growth (%)
// units = %; emit number, no label

Consider the worked cases shown below.
- smiles-entry: "CNC(=O)c1cc(Oc2ccc3nc(NC(=O)NC(C)C)sc3c2)ccn1"
  target-of-assay: "OVCAR-5 ovarian"
  quantity-name: "growth"
  output-unit: "%"
  number: 117
- smiles-entry: "COc1ccc(NC(=O)CSc2oc(-c3ccccc3)nc2S(=O)(=O)c2ccc(Cl)cc2)c(OC)c1"
  target-of-assay: "OVCAR-5 ovarian"
  quantity-name: "growth"
  output-unit: "%"
  number: 107
- smiles-entry: "COC(=O)c1sc(-c2ccc(C)cc2)cc1O"
  target-of-assay: "OVCAR-5 ovarian"
  quantity-name: "growth"
  output-unit: "%"
  number: 112
- smiles-entry: "O=C1NC(=O)C(=Cc2cc(-c3ccc(Cl)cc3)n(-c3ccccc3)n2)C(=O)N1"
  target-of-assay: "OVCAR-5 ovarian"
  quantity-name: "growth"
  output-unit: "%"
  number: 91.5

// next item, growth requested
Q: Find the recorded growth belonging to FC(F)(F)c1cc(N2CCCCC2)nc(NCCCNc2ccnc3cc(Cl)ccc23)n1 and report it.
Result: 87.6

----------
Tested on: PC-3 prostate
protocol-details: NCI-60 one-dose screen, 48 h
study-conditions: 10 µM unless noted
This is part of a sample that, as a whole, favours compounds with a hit. Of some 83,000 tested, about 20% had one in any assay. Calls of active or inactive are those of the source. The calls were made as follows: active = growth percent below 10; inactive = the rest.
The categories you may choose from are 1 for active, 0 for inactive

// known answers, use as guide
- compound: "O=C(CN1C(=O)NC2NC(=O)NC21)N/N=C/c1cccc([N+](=O)[O-])c1 (centres undefined)"
  target-of-assay: "PC-3 prostate"
  category: 0
- compound: "COc1ccc(C2=C/C(=C\\c3ccccc3O)C(=O)N2Cc2ccccc2)cc1"
  target-of-assay: "PC-3 prostate"
  category: 0
- compound: "CCCc1cc(CCC)n2nc(N)nc2n1"
  target-of-assay: "PC-3 prostate"
  category: 0
- compound: "CC1(C)CC(=O)C2=C(C1)OC(C(=O)c1ccccc1)C2c1cccc(Oc2ccccc2)c1 (centres undefined)"
  target-of-assay: "PC-3 prostate"
  category: 0
- compound: "COc1ccc(C2=NN3C(C2)c2cc(Br)ccc2OC3c2ccncc2)cc1 (centres undefined)"
  target-of-assay: "PC-3 prostate"
  category: 0
- compound: "Oc1cccc2c1NCCC2"
  target-of-assay: "PC-3 prostate"
  category: 1
- compound: "Cc1c(N2CCCCC2)[nH]c2ccccc12"
  target-of-assay: "PC-3 prostate"
  category: 0
- compound: "COc1cc2c(cc1OC)CC[N+](CCC[N+](C)(C)C)=C2"
  target-of-assay: "PC-3 prostate"
  category: 0

Q: Record request — test call for c1ccc(Cn2cc3c(c2)-c2nc(Nc4ccccc4)ncc2CC3)cc1
Result: 0

Q: And for CCN=c1sc2c(n1NC(=O)c1cc3ccc1CCc1ccc(cc1)CC3)C(=O)c1ccccc1C2=O ?
Result: 1

Q: And for CC/C(=C(/c1ccc(Cl)cc1)c1ccc(OCCN2CCCC2)cc1)c1ccccc1 ?
Result: 0

Q: And for CCOC(=O)c1ccc2c(c1)c1c(C)c3cnccc3c(C)c1n2C ?
Result: 1

Q: And for C#Cc1c(I)n(C2OC(CO[Si](C)(C)C(C)(C)C)C3OC(C)(C)OC32)c(=O)[nH]c1=O (centres undefined) ?
Result: 1

Q: And for CSc1nn2c(-c3cc4cc(Br)ccc4oc3=O)ccnc2c1C#N ?
Result: 0

----------
Test system: SN12C renal
protocol-details: NCI-60 one-dose screen, 48 h
study-conditions: 10 µM unless noted
This is part of a sample that, as a whole, favours compounds with a hit. Of some 83,000 tested, about 20% had one in any assay. The source made the active and inactive calls. How the source made its calls: active means growth percent below 10; inactive means the rest.
The categories you may choose from are active, inactive

- molecule: "COC(=O)c1nc(-c2ccc(C)cc2)oc1N1CCOCC1"
  target-of-assay: "SN12C renal"
  category: "inactive"
- molecule: "CCOC(=O)c1c(C)nc2c(c1N)C(=O)C(=O)N2CCc1ccc(OC)c(OC)c1"
  target-of-assay: "SN12C renal"
  category: "inactive"
- molecule: "Cc1c(CC(=O)Nc2ccccc2)nnn1-c1ccccc1"
  target-of-assay: "SN12C renal"
  category: "inactive"

Q: Record request — test call for COc1cc2nc3cc([N+](=O)[O-])ccc3c(NCCCNCCO)c2cc1OC
Result: active

Q: And for CCOC(=O)CSc1nc2sc3c(c2c(=O)n1-c1ccccc1)CCCCC3 ?
Result: inactive

Q: And for CCN1C(=O)N(CC)C2C1NN=c1s/c(=C\c3ccccc3)c(=O)n12 (stereo not given) ?
Result: inactive

Q: And for C#Cc1ccc(NC(=O)Cc2ccc(/C=C/C(=O)c3nccn3C)cc2)cc1 ?
Result: inactive

Q: And for COc1ccc(-n2c(=O)n(-c3ccc(-c4nc5ccc(F)cc5s4)cc3)c(=O)c3cccnc32)cc1 ?
Result: inactive

Q: And for CCOC(=O)c1cc(C(=O)c2cc(OC)cc(OC)c2)n2ccccc12 ?
Result: inactive

Q: And for COC(=O)[C@H](C)NC(=O)c1ccc(NC(=O)c2[nH]c(C)c(Cl)c2Cl)c(OCCN)c1 ?
Result: inactive

----------
Test system: LOX IMVI melanoma
protocol-details: NCI-60 one-dose screen, 48 h (100 = growth as untreated, 0 = no growth, -100 = all killed)
study-conditions: 10 µM unless noted
Method: Growth inhibition of the LOX IMVI human tumor cell line is measured as a screen for anti-cancer activity. Cells are grown in 96 well plates and exposed to the test compound for 48 hours. Compounds are tested at a single concentration, which is 10^-5 M for most compounds. The reported endpoint is percent growth (GI% or GIPRCNT), where numbers from 0 - 100% represent growth inhibition, and numbers from -100% - 0 represent cell death. For example, a value of 40 represents 60% growth inhibition. […]
Compounds without any hit were thinned out: in the full panel of roughly 83,000, 20% have a hit.
# label = Met if growth >= 60% else Not met

// known answers, use as guide
- molecule: "C=CC(=O)Nc1ccc2ncnc(Nc3cccc(NS(=O)(=O)CCC)c3Cl)c2c1"
  category: "Not met"
- molecule: "COc1cc2c(c(OC)c1OC)CCC(c1cccc(NC(=O)c3cccc(Cl)c3)c1)O2 (stereo not given)"
  category: "Met"
- molecule: "COc1cc(/C=N/NC(=O)c2ccc3nc(-c4ccc(Cl)cc4)[nH]c3c2)cc(OC)c1OC"
  category: "Not met"
- molecule: "COc1cc(/C=C2\\C(=O)N(CCOc3cc(O)c4c(=O)cc(-c5ccccc5)oc4c3)c3ccccc32)cc(OC)c1O"
  category: "Not met"
- molecule: "CCOc1ccc(N2C(=O)CCSC2=S)cc1"
  category: "Met"
- molecule: "Oc1cccc2c1NCCC2"
  category: "Not met"

Q: Quick check: does N/C(=N\c1nc2ccccc2s1)NC(=O)Nc1ccccc1 have growth greater than or equal to 60%?
Result: Not met

Q: And for COc1cccc(/C=C/C(=O)/C=C(/C=C/c2cccc(OC)c2OC)OB(F)F)c1OC ?
Result: Not met

Q: And for Cc1ccccc1NC(=O)c1sc2nc3c(cc2c1N)CCCC3 ?
Result: Not met

Q: And for COc1ccccc1NC(=O)n1c(=O)cc(C)c2ccc(O)cc21 ?
Result: Met

Q: And for O=C(Nc1ccccc1CNc1nc(Nc2ccc(OCCN3CCCC3)cc2)ncc1Cl)NC1CCCCC1 ?
Result: Met

Q: And for CO[C@]12C=C/C(=C(/C(=O)OCc3cccnc3)C(=O)CCCCCCCC[C@]3(OC)C=C/C(=C(/C(=O)OCc4cccnc4)C(=O)CCCCCCCC1)O3)O2 ?
Result: Not met

Q: And for O=S(=O)(Nc1ccc(Br)cc1)c1ccc(-c2cnc(C3CC3)o2)cc1 ?
Result: Not met

Q: And for O=C(/C=C/c1ccc([N+](=O)[O-])cc1)c1cccc(Nc2nc(Nc3ccccc3)nc(Nc3ccccc3)n2)c1 ?
Result: Met

Q: And for O=C(c1ccc(F)cc1)C1CCN(CCn2c(=O)[nH]c3ccccc3c2=O)CC1 ?
Result: Met

Q: And for O=CN1N=C(c2cccc(Nc3ccncc3)c2)CC1c1ccc2c(c1)OCO2 (stereo not given) ?
Result: Met

Q: And for COCCn1cc(-c2nc(-c3cc4cccnc4n3C)cs2)c2cc(OC)ccc21 ?
Result: Not met

Q: And for O=C(CSc1nc(-c2ccccc2)cn1-c1ccc(Cl)cc1)c1ccc([N+](=O)[O-])cc1 ?
Result: Met

Q: And for C(=N\Nc1nnc2n1N=C(c1ccccc1)CS2)/c1ccc(OCc2ccccc2)cc1 ?
Result: Met
